Data provenance: ChEMBL document CHEMBL1201862

# Test system: SNB-75
# Method Description: NCI tumour cell line growth inhibition, 48 h
Active and inactive are the calls of the source. Rule as the data show it: active = GI50 up to about 1.1 µM and inactive = higher.
Measured GI50 values are reported for all entries that follow.

Molecule	GI50
COC(=O)CN(C)P(=O)(N1CC1)N1CC1	> 100 µM (inactive)
O=C1C(Nc2ccc(S(=O)(=O)Nc3cnc4ccccc4n3)cc2)=C/C(=N\c2ccc(S(=O)(=O)Nc3cnc4ccccc4n3)cc2)c2ccccc21	14.6 µM (inactive)
Nc1nc2ccc3ccccc3c2[nH]1	> 10 µM (inactive)
CC(=O)NS(=O)(=O)c1ccc(NC(=O)COC(=O)c2cccc3c(=O)c4ccccc4[nH]c23)cc1	> 100 µM (inactive)
CCOC(=O)CCC(NC(=O)c1ccc(N2CCN(c3c(C)nc(N)nc3N)CC2)cc1)C(=O)OCC (centres undefined)	> 37.1 µM (inactive)
COC(=O)[C@@H](NC(=O)N(CCC#N)CCCN(C(=O)N[C@H](Cc1ccccc1)C(=O)OC)c1ccccc1)C(C)C	> 100 µM (inactive)
O=C(OCCN=C1c2ccccc2CCc2ccccc21)c1cc([N+](=O)[O-])cc([N+](=O)[O-])c1	> 100 µM (inactive)
CC(=O)OCC1(C)C(O)CCC2(C)C1CCC1CC3CC12CCC3(O)CO (centres undefined)	> 100 µM (inactive)
CCN(CC)C(=O)c1cccc2c(OC)ccc(OC)c12	> 100 µM (inactive)
CCNC(=S)NNC(=O)c1nsc2ccccc12	34.5 µM (inactive)
CCN1CC2(COC)C(O)CC(OC)C34C5CC6(O)C(OC)C=C(C5C6OC(=O)c5ccc(OC)c(OC)c5)C(C(OC)C23)C14 (centres undefined)	4.51 µM (inactive)
O=C(NOC(=O)c1ccc([N+](=O)[O-])cc1)c1ccc(Cl)cc1	15 µM (inactive)
N/C1=C/C(=O)NC(=O)c2c(c3ccccc3oc2=O)C1	> 100 µM (inactive)
Cc1cc(N(CCC#N)CCC#N)ccc1/C=C(\NC(=O)/C=C/c1ccccc1)C(=O)N=[N+]=[N-]	23 µM (inactive)
COc1cccc(C2c3cc4c(cc3OC(C)(N3CCCC3)C2C)OCO4)c1O (centres undefined)	2.3 µM (inactive)
Clc1ccc(-c2c(C3=NCCN3)nnn2-c2ccc(Cl)cc2)cc1	17.8 µM (inactive)
O=C(O)c1ccc(O)c(/N=N/c2cc(S(=O)(=O)O)c3ccccc3c2O)c1	> 100 µM (inactive)
CC(C)(C)OC(=O)N[C@H]1CC2(C=C(Cl)C(=O)C(Cl)=C2)OC1=O	20.5 µM (inactive)
OC(c1cc2ccc(C(F)(F)F)cc2c2cc(C(F)(F)F)ccc12)C1CCCCN1 (centres undefined)	1.29 µM (inactive)
